Data provenance: patent US11590109B2

System: H7N9 (influenza virus)
assay: microbe, parasite or virus in culture
details: Influenza A virus, H7N9, MDCK
// thresholds for IC50 classes: low interval: < 600 nM; middle interval: ≥ 600 nM and < 2000 nM; high interval: ≥ 2000 nM

O=C(O)c1cc(C(F)(F)F)ccc1/C=N/Nc1nc(-c2ccccc2Cl)cs1: middle interval
O=C(O)c1ccccc1/C=N/Nc1nc(-c2ccccc2Cl)cs1: middle interval
O=C(O)c1cc(F)ccc1/C=N/Nc1nc(-c2ccccc2Cl)cs1: low interval
O=C(O)c1cc(F)c(F)cc1/C=N/Nc1nc(-c2ccccc2Cl)cs1: middle interval
Cc1sc(N/N=C/c2ccccc2C(=O)O)nc1-c1ccccc1: high interval
CN(/N=C/c1ccc(F)cc1C(=O)O)c1nc(-c2ccccc2Cl)cs1: low interval

Class (by measured IC50) for CCN(/N=C/c1ccccc1C(=O)O)c1nc(-c2ccccc2Cl)cs1
high interval

Category lookup for the molecule Cc1ccc(/C=N/N(C)c2nc(-c3ccccc3)c(C)s2)c(C(=O)O)c1
high interval

Returns: class label. Input: CN(/N=C/c1cc(F)c(F)cc1C(=O)O)c1nc(-c2ccccc2Cl)cs1
low interval

Textbook exercise: identify the category of the molecule given here, Cc1ccc(/C=N/N(C)c2nc(-c3ccccc3Cl)cs2)c(C(=O)O)c1 , according to its measured value.
low interval

Categorize the following entry: Cc1ccc(/C=N/Nc2nc(-c3ccccc3Cl)cs2)c(C(=O)O)c1
middle interval

Form field 'band' for Cc1sc(N(C)/N=C/c2ccccc2C(=O)O)nc1-c1ccccc1
middle interval

Which class holds O=C(O)c1ccccc1/C=N/Nc1nc(-c2cc(Cl)ccc2Cl)cs1 ?
high interval

Sort CN(/N=C/c1ccccc1C(=O)O)c1nc(-c2ccccc2Cl)cs1 into one of the categories.
high interval
